Assay: Caco-2 permeability assay (CacoReady kit)
Format: in vitro ADME
Details: human, Caco-2, Caco-2 barrier, CacoReady kit; above 1×10^−6 cm/s classified as permeable
Exercise: state measured Papp for each of the compounds provided.

What the record says about CNC(=O)C(=O)CC[C@H](NC(=O)c1sc(Br)cc1C)C(=O)Nc1cccn(CC(=O)NC2C3CC4CC(C3)CC2C4)c1=O (stereo partly shown) : Papp is 10 to 100 nm/s

For record CNC(=O)C(=O)CC[C@H](NC(=O)c1cc2ccccc2o1)C(=O)Nc1cccn(CC(=O)NC2C3CC4CC(C3)CC2C4)c1=O (stereo partly shown) the listed Papp is 10 to 100 nm/s

For reference, reported Papp for CNC(=O)C(=O)CC[C@H](NC(=O)c1ccc(Cl)s1)C(=O)Nc1cccn(CC(=O)NC2C3CC4CC(C3)CC2C4)c1=O (stereo partly shown) stands at 10 to 100 nm/s

Briefly, Papp measured for CNC(=O)C(=O)CC[C@H](NC(=O)c1scc(Br)c1C)C(=O)Nc1cccn(CC(=O)NC2C3CC4CC(C3)CC2C4)c1=O (stereo partly shown) : 10 to 100 nm/s

The compound CNC(=O)C(=O)CC[C@H](NC(=O)c1snnc1C)C(=O)Nc1cccn(CC(=O)NC2C3CC4CC(C3)CC2C4)c1=O (stereo partly shown) showed Papp equal to < 10 nm/s

The value of Papp measured for the compound CNC(=O)C(=O)CC[C@H](NC(=O)c1csc(Br)n1)C(=O)Nc1cccn(CC(=O)NC2C3CC4CC(C3)CC2C4)c1=O (stereo partly shown) turned out to be 10 to 100 nm/s

Lab book: Papp of CNC(=O)C(=O)CC[C@H](NC(=O)c1cnccn1)C(=O)Nc1cccn(CC(=O)NC2C3CC4CC(C3)CC2C4)c1=O (stereo partly shown) noted as < 10 nm/s

---

For each of the compounds below, state its logD.
Assay: logD by shake flask method (octanol / PBS pH 7.4, HPLC)
Assay type: physicochemical
Settings: octanol / PBS pH 7.4, shake flask
Method: In order to classify the inventive compounds according to their lipophilicity, LogD values (distribution coefficient) were determined by means of the well-established shake flask method, measuring the partition of a compound between an octanol and phosphate-buffered saline (PBS, pH 7.4) by HPLC. The LogD is pH dependent and is a “predictor” for in-vivo properties. LogD combines lipophilicity (intrinsic structural property of the molecule, logP) and ionizability (pKa). […]

Kindly note the recorded logD for CNC(=O)C(=O)CC[C@H](NC(=O)c1sc(C)nc1C)C(=O)Nc1cccn(CC(=O)NC2C3CC4CC(C3)CC2C4)c1=O (stereo partly shown) [II-20] , which is 1 to 3

Lookup result for Cn1nncc1C(=O)N[C@@H](CCC(=O)C(N)=O)C(=O)Nc1cccn(CC(=O)NC2C3CC4CC(C3)CC2C4)c1=O (stereo partly shown) [II-127] ; measured logD: < 1

Lab book: logD of CNC(=O)C(=O)CC[C@H](NC(=O)c1cnccn1)C(=O)Nc1cccn(CC(=O)NC2C3CC4CC(C3)CC2C4)c1=O (stereo partly shown) [II-53] noted as 1 to 3

Given item CNC(=O)C(=O)CC[C@H](NC(=O)c1ccc2occc2c1)C(=O)Nc1cccn(CC(=O)NC2C3CC4CC2CC(NC(C)=O)(C4)C3)c1=O (stereo partly shown) [II-194] , the value recorded as its logD is < 1

The compound CNC(=O)C(=O)CC[C@H](NC(=O)c1oc2ccccc2c1C)C(=O)Nc1cccn(CC2C3CC4CC(C3)CC2C4)c1=O (stereo partly shown) [II-110] showed logD equal to 3 to 5

Consider CNC(=O)C(=O)CC[C@H](NC(=O)c1oc2ccccc2c1C)C(=O)Nc1cccn(CC(=O)NC2CC3C=CC2C3)c1=O (stereo partly shown) [II-97] . Its measured logD is 1 to 3

Field logD (entry CNC(=O)C(=O)CC[C@H](NC(=O)c1oc2ccccc2c1C)C(=O)Nc1cccn(CC(=O)N[C@H]2C[C@H]3CC[C@@H]2C3)c1=O [II-90] ) reads 1 to 3

Looking up CNC(=O)C(=O)CC[C@H](NC(=O)c1oc2ccccc2c1C)C(=O)Nc1cccn(CC(=O)N[C@H]2C[C@H]3CC[C@@]2(C)C3(C)C)c1=O [II-92] , I see its logD listed as 3 to 5

logD reported for this compound CNC(=O)C(=O)CC[C@H](NC(=O)c1ncn(C)n1)C(=O)Nc1cccn(CC(=O)NC2C3CC4CC(C3)CC2C4)c1=O (stereo partly shown) [II-135] : < 1

Reported logD of CNC(=O)C(=O)CC[C@H](NC(=O)c1cc2ccccc2[nH]1)C(=O)Nc1cccn(CC(=O)NC2C3CC4CC(C3)CC2C4)c1=O (stereo partly shown) [II-9] : 1 to 3

Recorded result, CNC(=O)C(=O)CC[C@H](NC(=O)[C@@H]1CCCN1C(C)=O)C(=O)Nc1cccn(CC(=O)NC2C3CC4CC(C3)CC2C4)c1=O (stereo partly shown) [II-50] , logD: < 1

CNC(=O)C(=O)CC[C@H](NC(=O)c1scc(Br)c1C)C(=O)Nc1cccn(CC(=O)NC2C3CC4CC(C3)CC2C4)c1=O (stereo partly shown) [II-41] has a reported logD of 3 to 5

Quick note, logD for C=CCNC(=O)C(=O)CC[C@H](NC(=O)c1oc2ccccc2c1C)C(=O)Nc1cccn(CC(=O)NC2C3CC4CC(C3)CC2C4)c1=O (stereo partly shown) [II-117] landed at 3 to 5

According to the records, this compound CNC(=O)C(=O)CC[C@H](NC(=O)c1nn[nH]n1)C(=O)Nc1cccn(CC(=O)NC2C3CC4CC(C3)CC2C4)c1=O (stereo partly shown) [II-52] displays logD of < 1

The compound identified as CNC(=O)C(=O)CC[C@H](NC(=O)[C@H]1CCNC1)C(=O)Nc1cccn(CC(=O)NC2C3CC4CC(C3)CC2C4)c1=O (stereo partly shown) [II-55] registered its logD at < 1

Input CNC(=O)C(=O)CC[C@H](NC(=O)c1oc2ccccc2c1C)C(=O)Nc1cccn(CC(=O)NC23CC4CC5C2C[C@@H]2C[C@H]5C(C4)[C@H]3C2)c1=O (stereo in doubt) [II-104] . Output logD: 1 to 3

Measured logD, CNC(=O)C(=O)CC[C@H](NC(=O)c1oc2ccccc2c1C)C(=O)Nc1cccn(CC(=O)N[C@H]2C[C@H]3C[C@@H]([C@@H]2C)C3(C)C)c1=O [II-101] : 3 to 5

Recorded result, CNC(=O)C(=O)CC[C@H](NC(=O)c1nc(Cl)sc1Cl)C(=O)Nc1cccn(CC(=O)NC2C3CC4CC(C3)CC2C4)c1=O (stereo partly shown) [II-32] , logD: 1 to 3

Field logD (entry CNC(=O)C(=O)CC[C@H](NC(=O)c1oc2ccccc2c1C)C(=O)Nc1cccn(CC(=O)NC2C3CC4CC2CC(Br)(C4)C3)c1=O (stereo partly shown) [II-71] ) reads 1 to 3

Value of measured logD for the entry CNC(=O)C(=O)CC[C@H](NC(=O)c1cc(Cl)sc1Cl)C(=O)Nc1cccn(CC(=O)N[C@H]2C[C@H]3CC[C@]2(C)C3(C)C)c1=O [II-160] : 1 to 3

logD in this record for Cc1cn2c(C(=O)N[C@@H](CCC(=O)C(=O)NC(C)(C)C)C(=O)Nc3cccn(CC(=O)NC4C5CC6CC(C5)CC4C6)c3=O)csc2n1 (stereo partly shown) [II-177] : 3 to 5

Reported logD ( CNC(=O)C(=O)CC[C@H](NC(=O)c1csc(Br)c1)C(=O)Nc1cccn(CC(=O)NC2C3CC4CC(C3)CC2C4)c1=O (stereo partly shown) [II-30] ) = 3 to 5

Sample O=C(Cn1cccc(NC(=O)[C@H](CCC(=O)C(=O)NCc2ccccc2)NC(=O)c2cc3ccccc3o2)c1=O)NC1C2CC3CC(C2)CC1C3 (stereo partly shown) [II-123] ; logD observed: 3 to 5

Kindly note the recorded logD for CNC(=O)C(=O)CC[C@H](NC(=O)c1cc2ccccc2s1)C(=O)Nc1cccn(CC(=O)NC2C3CC4CC(C3)CC2C4)c1=O (stereo partly shown) , which is 3 to 5

Short answer for CNC(=O)C(=O)CC[C@H](NC(=O)c1nc(Br)sc1C)C(=O)Nc1cccn(CC(=O)NC2C3CC4CC(C3)CC2C4)c1=O (stereo partly shown) [II-34] : logD was 1 to 3
